meta.source: paper PMC9394307

# PROTOCOL_TEXT: MTT cell viability assay, GM16000 lymphocytes
# Type: cell-based
# STUDY_CONDITIONS: GM16000 lymphocyte cells (non-tumor), human lymphocytes, value (95% CI)
log10 of CC50 at 72 h for assorted compounds
PARAMETER: log10 of CC50 at 72 h (log10 of the value in µM)

* C=CCN(/N=C/c1ccccc1)C(=O)c1cc(OC)c(OC)c(OC)c1 | -0.08
* COc1cc(C(=O)N(C)/N=C/c2ccccc2)cc(OC)c1OC | -0.88
* CCCCN(/N=C/c1ccccc1)C(=O)c1cc(OC)c(OC)c(OC)c1 | -0.02
* CCOC(=O)CN(/N=C/c1ccccc1)C(=O)c1cc(OC)c(OC)c(OC)c1 | 0.62
* COc1cc(C(=O)N/N=C/c2ccccc2)cc(OC)c1OC | 0.18
* CCOc1cc2ncc(C#N)c(Nc3ccc(F)c(Cl)c3)c2cc1NC(=O)/C=C/CN(C)C [Pelitinib, reference compound] | 0.44
* C#CCN(/N=C/c1ccccc1)C(=O)c1cc(OC)c(OC)c(OC)c1 | -0.21
* CCCN(/N=C/c1ccccc1)C(=O)c1cc(OC)c(OC)c(OC)c1 | -0.07
